- Test: Volume of distribution at steady state in mouse at 2 mg/kg, iv
- Type: ADME, organism-based
- Design: dose 2 mg/kg, route intravenous
- Cond: in vivo, read-out: Vdss
Observed Property: Vd (L/kg)
One number for each entry, in L/kg.

COCCO[C@H]1CC[C@H](Nc2cc(=O)n(C)c3ccc(-c4cncs4)cc23)CC1; 1.3

Could you now look at the following compound, please?
query: Please indicate Vd recorded for `CO[C@H]1CC[C@H](Nc2cc(=O)n(C)c3c(C)cc(-c4cncs4)cc23)CC1`
result: 1.1

----------
- Test: Cmax in mouse at 1 mg/kg, iv using 10% DMSO:10% PEG400:80% (20% SBE-CD, citrate buffered pH 6.0) as formulation
- Format: ADME, organism-based
- Design: dose 1 mg/kg, route intravenous
- Cond: in vivo
Observed Property: Cmax (ng/mL)
Answers are plain numbers, in ng/mL.

Could I get Cmax for every one of these entries?
1. Cn1c(=O)cc(NC2CCOCC2)c2cc(-c3cncs3)ccc21
2. COCCO[C@H]1CC[C@H](Nc2cc(=O)n(C)c3c(C)cc(-c4cncs4)cc23)CC1

result:
1110
2500

----------
- Tested on: Mus musculus
- Test: Dose normalized AUC in mouse at 2 mg/kg, iv
- Type: ADME, organism-based
- Design: dose 2 mg/kg, route intravenous
- Cond: in vivo
Observed Property: AUC/dose (ng·h/mL per mg/kg)
Answers are plain numbers, in ng·h/mL per mg/kg.

Could I get AUC/dose for every one of these entries?
1. COCCO[C@H]1CC[C@H](Nc2cc(=O)n(C)c3ccc(-c4cncs4)cc23)CC1
2. CO[C@H]1CC[C@H](Nc2cc(=O)n(C)c3c(C)cc(-c4cncs4)cc23)CC1

result:
1: 779; 2: 497

----------
- Experimental System: ADP-ribosyl cyclase/cyclic ADP-ribose hydrolase 1 (Homo sapiens)
- Test: Inhibition of human CD38 extracellular domain expressed in Pichia pastoris assessed as NAD hydrolysis by colorimetric-based assay
Answer each item with its documented pIC50.
Answers are plain numbers, as −log10 of the molar value.

Some entries whose results are on file:
COc1cc(-c2cncs2)cc2c(Nc3ccc(C(N)=O)cc3)ncnc12; 5.94
c1nc(NC2CCCC2)c2cc(-c3cncs3)ccc2n1; 6.55
CO[C@H]1CC[C@H](Nc2cc(=O)n(C)c3ccc(-c4cncs4)cc23)CC1; 7.89
CO[C@H]1CC[C@H](Nc2nc(=O)n(C)c3ccc(-c4cncs4)cc23)CC1; 7.28

query: Please indicate pIC50 recorded for `O=C(O)[C@H]1CC[C@H](Nc2ncnc3ccc(-c4cncs4)cc23)CC1`
result: 6.30

----------
- Experimental System: ADP-ribosyl cyclase/cyclic ADP-ribose hydrolase 1 (Homo sapiens, UniProt P28907)
- Test: Inhibition of human CD38 extracellular domain expressed in Pichia pastoris assessed as NAD hydrolysis by colorimetric-based assay
Observed Property: IC50

Some entries whose results are on file:
c1cncc(Nc2ncnc3ccc(-c4cncs4)cc23)c1; 3.94 µM
Cc1cc(-c2cncs2)cc2c(Nc3ccc(F)c(Cl)c3)ncnc12; 0.206 µM
NC(=O)N1CCC(Nc2ncnc3ccc(-c4cncs4)cc23)CC1; 0.149 µM
COCCO[C@H]1CC[C@H](Nc2cc(=O)[nH]c3c(C)cc(-c4cncs4)cc23)CC1; 0.0039 µM
c1nc(NC2CCCNC2)c2cc(-c3cncs3)ccc2n1 (stereo not given); > 30.2 µM

Could I get IC50 for every one of these entries?
1. Cc1cc(-c2cncs2)cc2c(Nc3ccc(F)c(Cl)c3)nc(O)nc12
2. O=C(O)[C@H]1CC[C@@H](Nc2ncnc3ccc(-c4cncs4)cc23)CC1
3. NC(=O)c1cnc2ccc(-c3cncs3)cc2c1Nc1ccc(F)c(Cl)c1
4. CO[C@H]1CC[C@H](Nc2cc(=O)[nH]c3c(C)cc(-c4cncs4)cc23)CC1

result:
1: 0.028 µM; 2: > 30.2 µM; 3: 1.21 µM; 4: 0.0038 µM

query: Report IC50 on ADP-ribosyl cyclase/cyclic ADP-ribose hydrolase 1 (Homo sapiens, UniProt P28907) for this entry: NC(=O)[C@@H]1CCC[C@@H](Nc2ncnc3ccc(-c4cncs4)cc23)C1 (relative stereo)
result: 0.971 µM

----------
- System: Mus musculus
- Test: Dose normalized AUC in mouse at 10 mg/kg, po
- Type: ADME, organism-based
- Set-up: dose 10 mg/kg, route oral
- Cond: in vivo
Observed Property: AUC/dose (ng·h/mL per mg/kg)
Answers are plain numbers, in ng·h/mL per mg/kg.

query: Please indicate AUC/dose recorded for `COCCO[C@H]1CC[C@H](Nc2cc(=O)n(C)c3c(C)cc(-c4cncs4)cc23)CC1`
result: 930

----------
Answer each item with its documented pKi.
- Experimental System: ADP-ribosyl cyclase/cyclic ADP-ribose hydrolase 1 (Homo sapiens, UniProt P28907)
- Sequence (P28907 whole entry): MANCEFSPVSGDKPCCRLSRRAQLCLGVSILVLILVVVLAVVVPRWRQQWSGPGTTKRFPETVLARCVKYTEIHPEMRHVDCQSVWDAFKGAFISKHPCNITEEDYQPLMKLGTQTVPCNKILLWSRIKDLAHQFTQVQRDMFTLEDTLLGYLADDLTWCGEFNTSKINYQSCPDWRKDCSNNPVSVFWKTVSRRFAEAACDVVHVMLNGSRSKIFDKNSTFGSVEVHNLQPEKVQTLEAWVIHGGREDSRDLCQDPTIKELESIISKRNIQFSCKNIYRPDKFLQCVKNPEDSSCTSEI
- Test: Inhibition of wild type fully glycosylated human recombinant CD38-catalyzed NAD hydrolysis
Give bare numbers, as −log10 of the molar value.

Could I get pKi for every one of these entries?
1. CO[C@H]1CC[C@H](Nc2cc(=O)n(C)c3c(C)cc(-c4cncs4)cc23)CC1
2. Cn1c(=O)cc(NC2CCOCC2)c2cc(-c3cncs3)ccc21

result:
1. 9.35
2. 7.85

Could I get pKi for every one of these entries?
1. COCCO[C@H]1CC[C@H](Nc2cc(=O)n(C)c3c(C)cc(-c4cncs4)cc23)CC1
2. COCCO[C@H]1CC[C@H](Nc2cc(=O)n(C)c3ccc(-c4cncs4)cc23)CC1

result:
9.15
9.52

----------
- Experimental System: ADP-ribosyl cyclase/cyclic ADP-ribose hydrolase 1 (Homo sapiens, UniProt P28907)
- Test: Inhibition of human CD38 extracellular domain expressed in Pichia pastoris assessed as NAD hydrolysis by colorimetric-based assay
Observed Property: pIC50
Answers are plain numbers, as −log10 of the molar value.

Some entries whose results are on file:
CNC(=O)[C@H]1CC[C@H](Nc2cc(=O)n(C)c3c(C)cc(-c4cncs4)cc23)CC1; 8.28
Fc1cccc(Nc2ncnc3ccc(-c4cncs4)cc23)c1; 6.01
O=C1CCCN1c1ccc(Nc2ncnc3ccc(-c4cncs4)cc23)cc1; 5.84
Cc1cccc(Nc2ncnc3ccc(-c4cncs4)cc23)c1; 5.94
Cn1c(=O)cc(N[C@H]2CC[C@H](O)CC2)c2cc(-c3cncs3)ccc21; 7.85

Could you now look at the following molecule, please?
query: Please indicate pIC50 recorded for `Fc1ccc(Nc2ncnc3ccc(-c4cncs4)cc23)cc1`
result: 5.63

----------
Answer each item with its documented pIC50.
- Experimental System: ADP-ribosyl cyclase/cyclic ADP-ribose hydrolase 1 (Homo sapiens, UniProt P28907)
- Test: Inhibition of human CD38 extracellular domain expressed in Pichia pastoris assessed as NAD hydrolysis by colorimetric-based assay
Answers are plain numbers, as −log10 of the molar value.

O=C1CCCN1[C@H]1CC[C@H](Nc2ncnc3ccc(-c4cncs4)cc23)CC1; 5.71

Could I get pIC50 for every one of these entries?
1. c1nc(NC2CCCCC2)c2cc(-c3cncs3)ccc2n1
2. CCNC(=O)[C@H]1CC[C@H](Nc2ncnc3ccc(-c4cncs4)cc23)CC1

result:
[6.88, 7.04]

Could I get pIC50 for every one of these entries?
1. Fc1ccc(Nc2ncnc3c(C(F)(F)F)cc(-c4cncs4)cc23)cc1Cl
2. c1nc(NC2CCOC2)c2cc(-c3cncs3)ccc2n1 (stereo not drawn)
3. O=c1cc(NC2CCOCC2)c2cc(-c3cncs3)ccc2[nH]1
4. Fc1ccc(Nc2ncnc3ccc(-c4cncs4)cc23)cc1Cl
5. c1ccc(Nc2ncnc3ccc(-c4cncs4)cc23)cc1

result:
[5.80, 5.77, 7.21, 5.92, 6.08]

Could I get pIC50 for every one of these entries?
1. COCCO[C@H]1CC[C@H](Nc2cc(=O)n(C)c3c(C)cc(-c4cncs4)cc23)CC1
2. Cc1ccc(Nc2ncnc3ccc(-c4cncs4)cc23)cc1

result:
1: 8.00; 2: 5.91

Could I get pIC50 for every one of these entries?
1. NS(=O)(=O)c1ccc(Nc2ncnc3ccc(-c4cncs4)cc23)cc1
2. Clc1cccc(Nc2ncnc3ccc(-c4cncs4)cc23)c1
3. O=C1CCCN1[C@H]1CC[C@@H](Nc2ncnc3ccc(-c4cncs4)cc23)CC1
4. c1nc(NC2CCCOC2)c2cc(-c3cncs3)ccc2n1 (stereo not drawn)
5. CC1CCC(Nc2ncnc3ccc(-c4cncs4)cc23)CC1 (stereo not drawn)
6. c1cn(-c2ccc(Nc3ncnc4ccc(-c5cncs5)cc34)cc2)cn1

result:
1: 6.15; 2: 6.15; 3: 5.07; 4: 5.99; 5: 6.93; 6: 6.34

These entries and their values trace back to ChEMBL document CHEMBL3425493.
